Target: Retinoic acid receptor RXR-alpha (Homo sapiens, UniProt P19793)
Sequence (P19793 whole entry): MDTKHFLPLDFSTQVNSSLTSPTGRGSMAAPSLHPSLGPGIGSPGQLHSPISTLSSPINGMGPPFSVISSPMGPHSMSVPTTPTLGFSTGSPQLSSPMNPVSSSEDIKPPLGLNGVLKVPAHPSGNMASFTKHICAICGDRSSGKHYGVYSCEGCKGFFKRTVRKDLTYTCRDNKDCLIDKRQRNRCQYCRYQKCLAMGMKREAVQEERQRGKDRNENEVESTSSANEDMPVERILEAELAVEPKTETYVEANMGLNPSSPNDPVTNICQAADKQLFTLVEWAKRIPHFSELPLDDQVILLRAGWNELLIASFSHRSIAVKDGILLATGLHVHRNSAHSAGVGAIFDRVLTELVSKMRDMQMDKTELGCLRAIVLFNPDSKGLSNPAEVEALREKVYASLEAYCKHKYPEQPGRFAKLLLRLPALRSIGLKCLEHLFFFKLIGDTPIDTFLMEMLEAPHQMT
readout: IC50 (nM)
# value in nM; strip the unit string

q: Please tell me the measured IC50 for CCCCOc1cc2c(cc1C(=C1CC1)c1ccc(C(=O)O)cc1)C(C)(C)CCC2(C)C ; system: Retinoic acid receptor RXR-alpha (Homo sapiens, UniProt P19793).
a: 270

q: Please tell me the measured IC50 for CCCCc1cc2c(cc1C(=C1CC1)c1ccc(C(=O)O)cc1)C(C)(C)CCC2(C)C ; system: Retinoic acid receptor RXR-alpha (Homo sapiens, UniProt P19793).
a: 500

// provenance: ChEMBL document CHEMBL1138684
